Settings: in dichloromethane, 278.15 K
property: solubility (mole fraction)
Give your answer as a number; write no unit.

What solubility (mole fraction) value was documented for this molecule, `O=[N+]([O-])c1cccc2ccccc12` ?
0.283

----------
Conditions: in n-propanol, 283.15 K
property: solubility (mole fraction)

# solubility (mole fraction) lookup, item `O=[N+]([O-])c1cccc2ccccc12`
0.0143

----------
Details: in dichloromethane, 293.15 K
property: solubility (mole fraction)
Returns: the value as a bare number; no unit string appended.

What measured solubility (mole fraction) goes with `O=[N+]([O-])c1cccc2ccccc12` ?
0.434

----------
Details: in isopropanol, 298.15 K
property: solubility (mole fraction)
Could you respond with only the numeric value?

What does the record list as solubility (mole fraction) for `O=[N+]([O-])c1cccc2ccccc12` ?
0.022

----------
Settings: in ethyl acetate, 293.15 K
property: solubility (mole fraction)

Any idea what solubility (mole fraction) was measured for `O=[N+]([O-])c1cccc2ccccc12` ?
0.31

----------
Conditions: in isobutanol, 308.15 K
property: solubility (mole fraction)

Fill in: solubility (mole fraction) of `O=[N+]([O-])c1cccc2ccccc12` is ___
0.0424

----------
Details: in methyl acetate, 293.15 K
property: solubility (mole fraction)

Give its solubility (mole fraction) value. Item: `O=[N+]([O-])c1cccc2ccccc12`
0.32

----------
Settings: in ethanol, 298.15 K
property: solubility (mole fraction)
I'd appreciate a reply containing only the number, no unit.

Param item = `O=[N+]([O-])c1cccc2ccccc12` ; retrieve measured solubility (mole fraction).
0.0281

----------
Conditions: in isopropanol, 308.15 K
property: solubility (mole fraction)
Lab note: record the figure alone, no unit after it.

Fill blank: measured solubility (mole fraction) of the molecule `O=[N+]([O-])c1cccc2ccccc12` is ____.
0.0423

----------
Conditions: in acetonitrile, 293.15 K
property: solubility (mole fraction)
Just the number, please.

# lookup: solubility (mole fraction) of `O=[N+]([O-])c1cccc2ccccc12`
0.225

----------
Settings: in acetone, 273.15 K
property: solubility (mole fraction)
Form field (numeric): enter value without unit.

Please look up its solubility (mole fraction): `O=[N+]([O-])c1cccc2ccccc12`
0.145

Each recorded value in this set is attributed to BigSolDB 2.1.
